# Target or test system: UniProt:P20309
# Sequence (P20309 whole entry): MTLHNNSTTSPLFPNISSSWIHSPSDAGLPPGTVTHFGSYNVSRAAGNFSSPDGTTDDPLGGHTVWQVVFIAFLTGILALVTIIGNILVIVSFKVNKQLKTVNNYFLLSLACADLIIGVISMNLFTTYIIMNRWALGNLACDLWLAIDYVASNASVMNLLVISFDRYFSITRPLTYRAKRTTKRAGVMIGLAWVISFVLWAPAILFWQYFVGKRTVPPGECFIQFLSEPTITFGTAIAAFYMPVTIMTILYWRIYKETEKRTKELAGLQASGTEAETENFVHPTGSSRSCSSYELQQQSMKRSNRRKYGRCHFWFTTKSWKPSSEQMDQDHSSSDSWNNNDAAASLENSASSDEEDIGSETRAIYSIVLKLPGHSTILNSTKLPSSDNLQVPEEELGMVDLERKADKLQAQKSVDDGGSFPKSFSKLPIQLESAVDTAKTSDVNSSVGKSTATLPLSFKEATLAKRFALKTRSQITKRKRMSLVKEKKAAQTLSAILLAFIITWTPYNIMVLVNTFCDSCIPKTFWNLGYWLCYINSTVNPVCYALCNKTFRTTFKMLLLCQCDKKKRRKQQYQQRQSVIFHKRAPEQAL
# Measurement description: Antagonist activity at human muscarinic M3 receptor by calcium mobilization assay
pIC50: −log10 of the molar value.
Property: pIC50

stdin: Record request: pIC50 value, item `CCOC(=O)N1C[C@H]2CC[C@@H](C1)[C@H]2NCCNC(=O)c1ccccc1`
stdout: < 5.00

---
stdin: Record request: pIC50 value, item `CCOC(=O)N1[C@@H]2CC[C@H]1C[C@@H](NCCNC(=O)c1ccccc1)C2`
stdout: < 5.00

* * *

# Measurement description: Oral bioavailability in rat at 10 mg/kg
# Type: ADME, organism-based
# Settings: in vivo
Property: bioavailability (%)
Only the number, expressed in %, is required.

stdin: Record request: bioavailability value, item CCOC(=O)N1C2CCC1CC(N1CCC[C@@H](NC(=O)c3ccccc3C)C1)C2 (mixture of isomers)
stdout: 70

* * *

# Target or test system: Muscarinic acetylcholine receptor M1 (Homo sapiens) (UniProt P11229)
# Measurement description: Agonist activity at human muscarinic M1 receptor expressed in TREx293 cells assessed as increase of soluble APPalpha release at 2 uM
# Format: functional, cell-based
# Settings: HEK293
The source made the active and inactive calls. The calls are words filed in the database; no cut-off is given here.
Property: Activity

Observe how each entry below is paired with its result.
stdin: Record request: Activity value, item CCOC(=O)N1C2CCC1CC(N1CCC[C@@H](NC(=O)c3ccccc3C)C1)C2 (mixture of isomers)
stdout: Active

stdin: Check `CCOC(=O)N1C[C@H]2CC[C@@H](C1)[C@H]2NCCNC(=O)c1ccccc1` too.
stdout: Active

stdin: Check `CCOC(=O)N1[C@@H]2CC[C@H]1C[C@H](NCCNC(=O)c1ccccc1)C2` too.
stdout: Active

stdin: Check CCOC(=O)N1C2CCC1CC(N1CCC[C@@H](NC(=O)c3ccccc3)C1)C2 (mixture of isomers) too.
stdout: Active

stdin: Check `CCOC(=O)N1CCC(NCCNC(=O)c2ccccc2C)CC1` too.
stdout: Active

Okay, now this compound:
stdin: Record request: Activity value, item `CCOC(=O)N1[C@@H]2CC[C@H]1C[C@@H](NCCNC(=O)c1ccccc1)C2`
stdout: Active

* * *

# Target or test system: Muscarinic acetylcholine receptor M5 (Homo sapiens, UniProt P08912)
# Sequence (P08912 whole entry): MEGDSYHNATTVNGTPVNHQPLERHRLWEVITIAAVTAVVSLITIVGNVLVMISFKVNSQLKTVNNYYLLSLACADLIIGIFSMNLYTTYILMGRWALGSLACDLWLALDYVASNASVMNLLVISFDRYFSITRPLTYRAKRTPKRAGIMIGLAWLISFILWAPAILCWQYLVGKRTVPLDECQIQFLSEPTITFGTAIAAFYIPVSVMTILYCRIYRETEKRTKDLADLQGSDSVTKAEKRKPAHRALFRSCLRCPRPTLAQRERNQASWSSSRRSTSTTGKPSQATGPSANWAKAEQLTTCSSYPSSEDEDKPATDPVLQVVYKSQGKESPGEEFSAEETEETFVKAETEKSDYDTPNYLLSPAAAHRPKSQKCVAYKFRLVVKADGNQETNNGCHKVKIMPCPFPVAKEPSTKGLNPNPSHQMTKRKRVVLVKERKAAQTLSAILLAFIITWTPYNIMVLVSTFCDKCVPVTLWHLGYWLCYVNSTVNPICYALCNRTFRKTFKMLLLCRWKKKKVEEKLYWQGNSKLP
# Measurement description: Agonist activity at human muscarinic M5 receptor by calcium mobilization assay
# Assay type: functional
# Settings: read-out: EC50
Property: EC50 (µM)
Only the number, expressed in µM, is required.

stdin: Record request: EC50 value, item `CCCCC1CCN(CCCN2C(=O)COc3cc(F)ccc32)CC1`
stdout: 1

stdin: Check `CCOC(=O)N1C[C@H]2CC[C@@H](C1)[C@H]2NCCNC(=O)c1ccccc1` too.
stdout: 2.8

---
stdin: Record request: EC50 value, item CCOC(=O)N1C2CCC1CC(N1CCC[C@@H](NC(=O)c3ccccc3C)C1)C2 (mixture of isomers)
stdout: 3.7

stdin: Check `CCOC(=O)N1C[C@H]2CC[C@@H](C1)[C@H]2NCCNC(=O)c1cccc(Cl)c1` too.
stdout: 4.2

* * *

# Measurement description: Clearance in rat at 1 mg/kg, iv and 10 mg/kg, po
# Assay type: ADME, organism-based
# Settings: in vivo
Property: clearance (mL/min/kg)
Only the number, expressed in mL/min/kg, is required.

stdin: Record request: clearance value, item CCOC(=O)N1C2CCC1CC(N1CCC[C@@H](NC(=O)c3ccccc3C)C1)C2 (mixture of isomers)
stdout: 189

* * *

# Target or test system: Muscarinic acetylcholine receptor M4 (Homo sapiens) (UniProt P08173)
# Sequence (whole entry): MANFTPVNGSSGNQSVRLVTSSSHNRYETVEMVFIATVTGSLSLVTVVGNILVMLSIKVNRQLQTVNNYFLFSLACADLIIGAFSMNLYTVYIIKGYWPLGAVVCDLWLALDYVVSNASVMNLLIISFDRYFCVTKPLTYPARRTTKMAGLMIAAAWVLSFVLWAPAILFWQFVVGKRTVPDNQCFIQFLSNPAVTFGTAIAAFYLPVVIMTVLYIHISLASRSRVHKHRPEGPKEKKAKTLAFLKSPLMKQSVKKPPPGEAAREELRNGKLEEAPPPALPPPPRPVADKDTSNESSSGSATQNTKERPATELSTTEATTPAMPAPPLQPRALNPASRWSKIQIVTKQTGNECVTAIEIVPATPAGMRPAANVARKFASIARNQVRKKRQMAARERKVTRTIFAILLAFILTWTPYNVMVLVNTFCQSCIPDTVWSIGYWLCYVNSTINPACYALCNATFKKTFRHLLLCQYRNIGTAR
# Measurement description: Antagonist activity at human muscarinic M4 receptor assessed as remaining activity measured as percentage of maximum response generated from 80% of saturating dose of ACh at 30 uM by calcium mobilization assay
# Assay type: functional
Property: Activity
Remember to put the unit after the number in your answer.

Observe how each entry below is paired with its result.
stdin: # query: Activity | item `CCOC(=O)N1C[C@H]2CC[C@@H](C1)[C@H]2NCCNC(=O)c1cccc(Cl)c1` | system: Muscarinic acetylcholine receptor M4 (Homo sapiens) (UniProt P08173)
stdout: 40%

stdin: Check `CCCCC1CCN(CCCN2C(=O)COc3cc(F)ccc32)CC1` too.
stdout: 26%

stdin: Check `CCOC(=O)N1[C@@H]2CC[C@H]1C[C@@H](NCCNC(=O)c1ccccc1)C2` too.
stdout: 2%

---
stdin: # query: Activity | item `CCOC(=O)N1C[C@H]2CC[C@@H](C1)[C@H]2NCCNC(=O)c1ccccc1` | system: Muscarinic acetylcholine receptor M4 (Homo sapiens) (UniProt P08173)
stdout: 48%

* * *

# Target or test system: Muscarinic acetylcholine receptor M1 (Homo sapiens) (UniProt P11229)
# Sequence (whole entry): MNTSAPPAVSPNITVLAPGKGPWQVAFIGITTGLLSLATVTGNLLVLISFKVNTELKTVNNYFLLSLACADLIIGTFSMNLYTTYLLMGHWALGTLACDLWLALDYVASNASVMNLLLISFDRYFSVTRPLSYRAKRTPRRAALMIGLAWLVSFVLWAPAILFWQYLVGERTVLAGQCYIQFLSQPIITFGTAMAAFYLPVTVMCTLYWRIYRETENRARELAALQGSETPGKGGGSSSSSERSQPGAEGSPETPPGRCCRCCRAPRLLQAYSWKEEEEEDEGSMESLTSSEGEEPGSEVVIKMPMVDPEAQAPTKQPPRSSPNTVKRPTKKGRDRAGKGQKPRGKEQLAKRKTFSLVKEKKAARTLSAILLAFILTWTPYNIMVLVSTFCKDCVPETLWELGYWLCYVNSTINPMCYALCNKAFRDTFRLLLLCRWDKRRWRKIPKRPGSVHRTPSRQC
# Measurement description: Agonist activity at human muscarinic M1 receptor at 30 uM relative to acetylcholine
# Assay type: functional
Property: Activity (%)
Only the number, expressed in %, is required.

Observe how each entry below is paired with its result.
stdin: Record request: Activity value, item `CC(C)C(=O)N1[C@@H]2CC[C@H]1C[C@H](NCCNC(=O)c1ccccc1)C2`
stdout: 23

stdin: Check `CCOC(=O)N1[C@@H]2CC[C@H]1C[C@H](NCCNC(=O)c1cccs1)C2` too.
stdout: 33

stdin: Check CCOC(=O)N1CC[C@H]2[C@@H](CCCN2CCNC(=O)c2ccccc2)C1 (relative stereo) too.
stdout: 13

Okay, now this molecule:
stdin: Record request: Activity value, item `CCOC(=O)N1C[C@H]2CC[C@@H](C1)[C@H]2NCCNC(=O)c1cccc(OC)c1`
stdout: 47

* * *

# Target or test system: Muscarinic acetylcholine receptor M1 (Homo sapiens)
# Sequence (P11229 whole entry): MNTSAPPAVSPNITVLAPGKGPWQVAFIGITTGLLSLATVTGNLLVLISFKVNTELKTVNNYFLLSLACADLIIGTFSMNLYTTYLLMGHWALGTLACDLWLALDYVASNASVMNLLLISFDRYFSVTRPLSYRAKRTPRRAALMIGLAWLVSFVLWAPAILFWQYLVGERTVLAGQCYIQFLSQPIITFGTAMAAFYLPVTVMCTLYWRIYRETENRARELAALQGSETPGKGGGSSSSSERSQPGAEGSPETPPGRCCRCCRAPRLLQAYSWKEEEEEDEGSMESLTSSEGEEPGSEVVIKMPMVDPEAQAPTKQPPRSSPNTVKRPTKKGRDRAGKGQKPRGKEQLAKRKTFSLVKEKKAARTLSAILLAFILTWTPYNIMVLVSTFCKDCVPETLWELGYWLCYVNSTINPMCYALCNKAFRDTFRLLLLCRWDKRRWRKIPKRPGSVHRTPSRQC
# Measurement description: Agonist activity at human muscarinic M1 receptor
# Format: functional
# Settings: read-out: EC50
The entries below come with measured log10(EC50) values attached.
Log scale reminder: EC50 in nM, then log10 taken.

Observe how each entry below is paired with its result.
stdin: Record request: log10(EC50) value, item `CCOC(=O)N1C[C@H]2CC[C@@H](C1)[C@H]2NCCNC(=O)C1CCCCC1`
stdout: 3.00

stdin: Check `CCOC(=O)N1C[C@H]2CC[C@@H](C1)[C@H]2NCCNC(=O)c1cccs1` too.
stdout: 2.23

stdin: Check CCOC(=O)N1CC[C@H]2[C@@H](CCCN2CCNC(=O)c2ccccc2)C1 (relative stereo) too.
stdout: 3.51

stdin: Check `CCOC(=O)N1C[C@H]2CC[C@@H](C1)[C@H]2NCCNC(=O)c1ccccc1C` too.
stdout: 2.23

stdin: Check `CCOC(=O)N1[C@@H]2CC[C@H]1C[C@H](NCCNC(=O)c1cc(F)cc(F)c1)C2` too.
stdout: 3.28

stdin: Check CCOC(=O)N1C2CCC1CC(N1CCC[C@H](NC(=O)c3ccccc3C)C1)C2 (mixture of isomers) too.
stdout: 3.32

---
stdin: Record request: log10(EC50) value, item CCOC(=O)N1[C@@H]2CC[C@H]1CC(NCCNC(=O)c1ccc(C)c(F)c1)C2 (mixture of isomers)
stdout: 2.67

stdin: Check CCOC(=O)N1C2CCC1CC(N1CC[C@@H](NC(=O)c3ccccc3C)C1)C2 (mixture of isomers) too.
stdout: 3.08

stdin: Check `CCOC(=O)N1[C@@H]2CC[C@H]1C[C@H](NCCNC(=O)c1ccc(F)c(F)c1)C2` too.
stdout: 2.91

stdin: Check `CCOC(=O)N1C[C@H]2CC[C@@H](C1)[C@H]2NCCNC(=O)N1CCCCC1` too.
stdout: 2.84

Data provenance: ChEMBL document CHEMBL2021911
